target: Elongation factor Tu, mitochondrial (Homo sapiens); note: in the data inactive means no Kd found up to 30 µM
Active and inactive are the calls of the source.
Measure: Kd

The cases that follow already have their Kd on record.
Compound	Kd
Cn1cc(C2=C(c3cn(C4CCN(Cc5ccccn5)CC4)c4ccccc34)C(=O)NC2=O)c2ccccc21 [ENZASTAURIN]	> 30 µM (inactive)
O=C(Nc1cc(C(F)(F)F)cc(C(F)(F)F)c1)c1cc(Cl)ccc1O [IMD-0354]	> 30 µM (inactive)
CN1C/C=C/CCOc2cccc(c2)-c2ccnc(n2)Nc2cccc(c2)C1 [ZOTIRACICLIB]	> 30 µM (inactive)

Asked: What does the record list as Kd for CCS(=O)(=O)c1cccc(-c2cc(C(=O)NC3CCN(C)CC3)c(C)c3[nH]c4ncc(C)cc4c23)c1 [TAK-901] ?
Given back: > 30 µM (inactive)

Asked: Try this compound too: Nc1ncnc2c1c(-c1cccc(OCc3ccccc3)c1)cn2[C@H]1C[C@@H](CN2CCC2)C1 [AEW-541]
Given back: > 30 µM (inactive)

Asked: For CC(C)c1cc(CNc2nc(Nc3cc(C4CC4)[nH]n3)cc(N3CCN(C)CC3)n2)on1 [XL-228] then?
Given back: > 30 µM (inactive)

Asked: Try the compound CNC(=O)c1nn(C)c2c1C(C)(C)Cc1cnc(Nc3ccc(N4CCN(C)CC4)cc3)nc1-2 [MILCICLIB]
Given back: > 30 µM (inactive)

Asked: Same thing, different compound: CC(=O)NCC(=O)N1[C@@H]2CC[C@H]1c1ccc(Nc3ncc(C(F)(F)F)c(NC4CCC4)n3)cc12 [PF-03814735]
Given back: > 30 µM (inactive)
